The measured values listed here are drawn from ChEMBL document CHEMBL5120927.

Reported MIC values for the following compounds.
system: Staphylococcus aureus; assay: Antibacterial activity against […] Staphylococcus aureus 4463/A assessed as reduction in microbial growth incubated for 24 hrs by microdilution assay; assay type: functional
Reply with just the number (in µg/mL).

Use these answered entries as a reference point.
O=C(N[C@H](CO)[C@H](O)c1ccc([N+](=O)[O-])cc1)C(Cl)Cl | 2
CCCC/C=C\CCOP(=O)(CCN(CCCN)CCCN)OCCCCCOP(=O)(CCN(CCCN)CCCN)OCC/C=C\CCCC.Cl.Cl.Cl.Cl.Cl.Cl (stereo not given) | 4
O=C(O)c1cn(C2CC2)c2cc(N3CCNCC3)c(F)cc2c1=O | 0.25
CCCCCCCCOP(=O)(CCN(CCCN)CCCN)OCCCCOP(=O)(CCN(CCCN)CCCN)OCCCCCCCC.Cl.Cl.Cl.Cl.Cl.Cl (stereo not given) | 2
CCCCCCCCOP(=O)(CCN(CCCN)CCCN)OCCCCCCOP(=O)(CCN(CCCN)CCCN)OCCCCCCCC.Cl.Cl.Cl.Cl.Cl.Cl (stereo not given) | 1

Kindly review the next compound as well.
Problem: // MIC lookup, key: `CCC[C@@H]1C[C@@H](C(=O)N[C@@H]([C@H]2O[C@H](SC)[C@H](O)[C@@H](O)[C@H]2O)[C@H](C)Cl)N(C)C1`
Result: 0.125
